- assay.notes: SK-BR-3 cell growth inhibitors, pilot screen, 24 h, human (AID 572);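 note: compound exposure lasted between 18 and 24 h rather than exactly 24 h; 100% = carrier-treated control wells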
- condition.info: SK-BR-3 viability, CellTiter-Glo luminescence, at 10 µM, stronger effect = lower value
measure.name: viability (%)
Field format: number, assumed %, no unit text.

Cc1csc(NC(=O)CCS(=O)(=O)c2ccc(Br)cc2)n1	99.5

Answer with reported viability of O=C(c1csc2ccccc12)N1CCCCCC1
109

Answer with reported viability of CN(Cc1ccccc1)C(=O)c1ccccc1NC(=O)c1ccco1
94

Answer with reported viability of CN1CCN(C2=Nc3ccccc3Oc3ccc(Cl)cc32)CC1
80

Answer with reported viability of CC(COc1ccccc1)N(CCCl)Cc1ccccc1 (stereo not drawn)
107

Answer with reported viability of CCOC(=O)Cc1nnc2c(Nc3ccccc3F)nc3nonc3n12
108
